Assayed System: Muscarinic acetylcholine receptor
Assay Procedure: In vitro binding affinity to muscarinic acetylcholine receptor site in rat brain assayed using [3H]oxotremorine-M as the radioligand.
Assay type: tissue-based
Threshold-based label: IC50 under 100 nM gives yes, IC50 not under 100 nM gives no.

# Compound, Assayed System, Class Assignment
data = [
    ("CCCCc1noc(C2=CCCN(CC)C2)n1", "Muscarinic acetylcholine receptor", "yes"),
    ("CCCCc1noc(C2=CC(C)CNC2)n1 (configuration not stated)", "Muscarinic acetylcholine receptor", "no"),
    ("CCCc1nc(C2=CCCN(C)C2)no1.O=C(O)C(=O)O", "Muscarinic acetylcholine receptor", "no"),
    ("CCc1noc(C2=CCCN(C)C2)n1.O=C(O)C(=O)O", "Muscarinic acetylcholine receptor", "yes"),
    ("CCCCc1noc(C2=CCC(C)N(C)C2)n1 (configuration not stated)", "Muscarinic acetylcholine receptor", "no"),
    ("CCCCCc1noc(C2=CCCN(C)C2)n1.O=C(O)C(=O)O", "Muscarinic acetylcholine receptor", "yes"),
    ("CN1CCC=C(c2nc(C3CCCCCC3)no2)C1.O=C(O)C(=O)O", "Muscarinic acetylcholine receptor", "no"),
]

----------
Assayed System: Muscarinic acetylcholine receptor
Assay Procedure: Agonist activity at muscarinic acetylcholine receptor in isolated guinea pig ileum.
Type: functional, tissue-based, Cavia porcellus

# Compound, Assayed System, EC50
data = [
    ("CCc1noc(C2=CCCN(C)C2)n1.O=C(O)C(=O)O", "Muscarinic acetylcholine receptor", "0.2 µM"),
    ("CN1CCC=C(c2nc(C3CCCC3)no2)C1.O=C(O)C(=O)O", "Muscarinic acetylcholine receptor", "> 30 µM"),
    ("CN1CCC=C(c2nc(C3CCCCCC3)no2)C1.O=C(O)C(=O)O", "Muscarinic acetylcholine receptor", "> 30 µM"),
    ("CCOCCc1noc(C2=CCCN(C)C2)n1.O=C(O)C(=O)O", "Muscarinic acetylcholine receptor", "1.28 µM"),
    ("CCCCc1noc(C2=CCC3CCC2N3C)n1 (stereo not drawn)", "Muscarinic acetylcholine receptor", "> 30 µM"),
    ("Cc1noc(C2=CCCN(C)C2)n1.O=C(O)C(=O)O", "Muscarinic acetylcholine receptor", "0.032 µM"),
    ("CCCCc1noc(C2=CCCN(CC)C2)n1", "Muscarinic acetylcholine receptor", "> 30 µM"),
    ("CCCc1noc(C2=CCCN(C)C2)n1.O=C(O)C(=O)O", "Muscarinic acetylcholine receptor", "0.1 µM"),
    ("COCc1noc(C2=CCCN(C)C2)n1.O=C(O)C(=O)O", "Muscarinic acetylcholine receptor", "0.42 µM"),
    ("CC(C)c1noc(C2=CCCN(C)C2)n1.O=C(O)C(=O)O", "Muscarinic acetylcholine receptor", "> 30 µM"),
    ("CCc1nc(C2=CCCN(C)C2)no1.O=C(O)C(=O)O", "Muscarinic acetylcholine receptor", "> 30 µM"),
    ("CCCCc1noc(C2=CC(C)CNC2)n1 (stereo not drawn)", "Muscarinic acetylcholine receptor", "> 30 µM"),
    ("CCCCc1noc(C2=CCC(C)N(C)C2)n1 (stereo not drawn)", "Muscarinic acetylcholine receptor", "> 30 µM"),
]

These data points were gathered from ChEMBL document CHEMBL1125247.
